- tested target: phospholipase C obtained from lung of guinea-pig
- protocol summary: Inhibitory effect on phospholipase C (method of Rittenhouse-Simmons, 3H-labelled phosphatidyl-inositol substrate)
- measurement conditions: enzyme from lung of guinea-pig; substrate 3H-myoinositol labelled phosphatidyl-inositol from rat liver microsome
measured parameter: IC50 (µM)
Response body: numeric value in µM, unit text excluded.

compound: CCCCCCCCCCCCCCCCOCC(O)COCCCC[N+](C)(C)C (racemic) [5 (d)]
IC50 [µM]: 660

Moving on to another compound below.
Q: Find the recorded IC50 belonging to CCCCCCCCCCCCCCCCOCC(COCCCC[N+](C)(C)C)OCc1ccccc1 (racemic) [1 (g)] and report it.
A: 180
